Target: T1, CRBN, Q96SW2;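 also: pooled lentiviral library of zinc finger degron-EGFP fusions in mCherry-positive Jurkat cells, FACS-sorted after compound exposure, with degron abundance counted by next-generation sequencing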
T1 chain: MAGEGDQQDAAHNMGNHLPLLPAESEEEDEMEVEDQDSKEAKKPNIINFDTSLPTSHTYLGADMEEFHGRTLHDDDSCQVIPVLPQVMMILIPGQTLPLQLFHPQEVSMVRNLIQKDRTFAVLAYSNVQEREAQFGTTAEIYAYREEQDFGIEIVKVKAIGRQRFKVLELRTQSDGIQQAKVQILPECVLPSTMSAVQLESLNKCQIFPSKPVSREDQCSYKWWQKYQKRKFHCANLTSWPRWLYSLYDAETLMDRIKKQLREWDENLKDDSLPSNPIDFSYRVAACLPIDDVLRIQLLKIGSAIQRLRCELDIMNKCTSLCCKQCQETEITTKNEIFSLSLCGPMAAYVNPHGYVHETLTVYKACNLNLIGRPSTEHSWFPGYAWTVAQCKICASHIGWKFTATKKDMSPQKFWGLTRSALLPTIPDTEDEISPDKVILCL
Assay: log2 fold change of degron read counts, EGFP-low vs EGFP+ sorted cells (limma voom), compound-induced degradation; higher = more compound-induced degradation of the degron-EGFP fusion; degrons are variants of IKZF1/3 zinc finger 2; compound dose not given here
Settings: Jurkat; 18 h; compound: thalidomide
Over roughly 8,300 sequences, “log2 fold change of degron read counts, EGFP-low vs EGFP+ sorted cells (limma voom), compound-induced degradation” has its median near -1.1; the highest 2% begin near 3.2. The sample as a whole holds a higher share of the highest values than the screen did.
Where log2 fold change of degron read counts equals or exceeds -2, the correct label is condition met; where it does not, the label is condition not met.

# check: log2 fold change of degron read counts of FACPQCGAKFTQKGNLLRHIKL [46F_47A_49P_50Q_52G_53A_54K_55F_67L_, Q9UKT9] is greater than or equal to -2
condition met

Tell me whether log2 fold change of degron read counts is at least -2 here: FKCEICGRRFTQKGNLLRHIKL [46F_47K_49E_50I_52G_53R_54R_55F_67L_, Q9UKT9]
condition met

Given FGCNQCGHNFTQKGNLLRHIKL [46F_47G_49N_50Q_52G_53H_54N_55F_67L_, Q9UKT9] , state whether its log2 fold change of degron read counts is at least -2.
condition met

Is the recorded value of log2 fold change of degron read counts equal to or greater than -2 for this sequence? LYCNQCGFFCTQKGNLLRHIKL [46L_47Y_49N_50Q_52G_53F_54F_55C_67L_, Q9UKT9]
condition met

// inclusive: log2 fold change of degron read counts at least -2? input: LSCPICGFFCTQKGNLLRHIKL [46L_47S_49P_50I_52G_53F_54F_55C_67L_, Q9UKT9]
condition met

Is it the case that FTCEICGHIFTQKGNLLRHIKL [46F_47T_49E_50I_52G_53H_54I_55F_67L_, Q9UKT9] has log2 fold change of degron read counts reaching or exceeding -2?
condition not met

Check if log2 fold change of degron read counts >= -2 (inclusive). Item: LGCPICGFFCTQKGNLLRHIKL [46L_47G_49P_50I_52G_53F_54F_55C_67L_, Q9UKT9]
condition met

State whether the measured log2 fold change of degron read counts reaches -2, counting equality as reaching it, for FFCDICGAYFTQKGNLLRHIKL [46F_47F_49D_50I_52G_53A_54Y_55F_67L_, Q9UKT9]
condition met

Could you tell me if the measured log2 fold change of degron read counts of FRCEICGRGFTQKGNLLRHIKL [46F_47R_49E_50I_52G_53R_54G_55F_67L_, Q9UKT9] reaches -2 or more?
condition met

hey, is log2 fold change of degron read counts for this one >= -2? FTCDVCGAMFTQKGNLLRHIKL [46F_47T_49D_50V_52G_53A_54M_55F_67L_, Q9UKT9]
condition met

Does FYCNQCGATFTQKGNLLRHIKL [46F_47Y_49N_50Q_52G_53A_54T_55F_67L_, Q9UKT9] have a reported log2 fold change of degron read counts of at least -2?
condition not met

Entry FLCEICGHLFTQKGNLLRHIKL [46F_47L_49E_50I_52G_53H_54L_55F_67L_, Q9UKT9] : is its log2 fold change of degron read counts no less than -2?
condition not met

log2 fold change of degron read counts >= -2 for LHCPICGFFCTQKGNLLRHIKL [46L_47H_49P_50I_52G_53F_54F_55C_67L_, Q9UKT9] ?
condition met

Does the sequence FCCNQCGRAFTQKGNLLRHIKL [46F_47C_49N_50Q_52G_53R_54A_55F_67L_, Q9UKT9] have recorded log2 fold change of degron read counts that is -2 or more?
condition not met

// data source = the supplement of paper PMC12645437
